TGT: T1, Histidine-tagged human PD-1 protein (hPD-1-His) (human, UniProt Q15116 25-170, limits assumed)
T1 construct: Soluble analyte in SPR; not shown: histidine tag
TEST_METHOD_NOTES: SPR (Biacore T200), antibody captured on Protein A chip, hPD-1-His analyte, 1:1 fit
Measured koff of individual entries
Your answer should be a plain number; it is taken to be in s⁻¹.

Solved entries:
INSERT INTO measurements (binder, unit_label, recorded_number) VALUES
  ('3F1-H4K1-IgG4-S228P (antibody, V domains shown, Humanized; human IgG4 constant domains with S228P (EU numbering)) VH: QVQLQQSGAEVAKPGASVKMSCKASGYTFTSYWMHWVKQRPGQGLEWIGYINPSTGYTEYNQKFKDRATLTADKSTSTAYMELSSLTSEDTAVYYCARGVRYYFDYWGQGTLLTVSS VL: DIVMTQSPDSLAVSLGERATISCKSSQSLLNSRTRKNYLAWYQQKPGQSPKLLIYWASTRESGVPDRFSGSGSGTDFTLTISSVQAEDVAVYYCKQSYNLLTFGQGTKLELK', 's⁻¹', 0.00204),
  ('3F1-H2K1-IgG4-S228P (antibody, V domains shown, Humanized; human IgG4 constant domains with S228P (EU numbering)) VH: QVQLQQSGAEVKKPGASVKMSCKASGYTFTSYWMHWVKQRPGQGLEWIGYINPSTGYTEYNQKFKDRATLTADKSTSTAYMELSSLRSEDTAVYYCARGVRYYFDYWGQGTLVTVSS VL: DIVMTQSPDSLAVSLGERATISCKSSQSLLNSRTRKNYLAWYQQKPGQSPKLLIYWASTRESGVPDRFSGSGSGTDFTLTISSVQAEDVAVYYCKQSYNLLTFGQGTKLELK', 's⁻¹', 0.00192);

Task: # lookup: koff of 3F1-mHvKv-IgG4-S228P (antibody, V domains shown, Chimeric antibody: mouse 3F1 variable domains, human IgG4 constant domains (CL, CH1, CH2, CH3) with S228P (EU numbering); also called 18-3F1-mHvKv-IgG4-S228P; 3F1-mHyKy-IgG4-S228P) VH: QVQLQQSGAELAKPGASVKMSCKASGYTFTSYWMHWVKQRPGQGLEWIGYINPSTGYTEYNQKFKDKATLTADKSSSTAYMQLSSLTSEDSAVYYCARGVRYYFDYWGQGTTLTVSS VL: DIVMSQSPSSLAVSAGEKVTMSCKSSQSLLNSRTRKNYLAWYQQKPGQSPKLLIYWASTRESGVPDRFTGSGSGTDFTLTISSVQAEDLAVYYCKQSYNLLTFGAGTKLELK
Output: 0.00128
